- SYSTEM UNDER TEST: T1, MA peptide (Octet assay of PS557 variants)
- T1 construct: Peptide coated on the Octet sensor
- ASSAY METHOD TEXT: Octet (BLI), peptide on sensor, response after 200 s association
- Source text: In the high-throughput assay, Octet sensors are coated with the peptide of interest and dipped in buffer containing the purified protein. An approximation of relative binding can be obtained by comparing the response after 200 seconds for each protein. Each protein has approximately the same molecular mass and is used at the same concentration, so ranking the proteins by response level in this assay gives an approximation of which proteins have improved binding. […]
QUANTITY: Octet response (nm)
Supply the numeric figure in nm, leaving out any unit text.

PS852 (designed binder, Variant of PS557) MPTAASATESAIEDTPAPARPEVDGRTKPKHQPRYHVVLWDDDDHTYQYVVVMLRSLFGHPPERGYRLAKEMDTQGRVIVLTTTREHAELKRDQIHAFGYDRLLARSKGSMKASIEAEE = 5.48
PS824 (designed binder, Variant of PS557) MPTAASATESAFEDTPAPARPEVDGRTKPKRQPRYHVVLWDDDDHTYQYVVVMLRSLFGHPPERGYRLAKEMDTQGRVIVLTTTREHAELKRDQIHAFGYDRLLARSKGSMKASIEAEE = 9.5
PS833 (designed binder, Variant of PS557) MPTAASATESAIEDTPAPARPVVDGRTKPKRQPRYHVVLWDDDDHTYQYVVVMLQSLFGHPPERGYRLAKEMDTQGRVIVLTTTREHAELKRDQIHAFGYDRLLARSKGSMKASIEAEE = 5.11

Let us examine a further case.
Respond only with Octet response recorded for PS557 (other, Natural ClpS parent protein; also called WT; wild-type protein) MPTAASATESAIEDTPAPARPEVDGRTKPKRQPRYHVVLWNDDDHTYQYVVVMLQSLFGHPPERGYRLAKEVDTQGRVIVLTTTREHAELKRDQIHAFGYDRLLARSKGSMKASIEAEE 1.68
